Experiment: sensitizers of A549 cells to miR-34 induction, primary screen, imaging, A549 dox-inducible miR-34, nuclei and caspase counts (AID 1347080)
Details: A549 miR-34 inducible, Hoechst nuclei count, 48 h; measured here: total cells with miR-34 induction; stronger effect = lower value
Would you mind classing the entries by cell count? Ranges: 0 (below 6000), 1 (6000 to below 9000), 2 (9000 or more)

Study these solved cases before continuing.
# compound, group.label
records = [
    ("C#C[C@@]1(O)C=C[C@H]2[C@@H]3CCC4=CC(=O)CC[C@@H]4[C@@H]3CC[C@@]21CC", 1),
    ("C[C@]12Cc3cn4c(nc3C=C1CCC1C2CC[C@@]2(C)[C@H]1CC[C@@]2(O)C#N)nc1ccccc14 (stereo partly specified)", 0),
    ("CCOc1ccccc1-n1c(C(C)N2CCN(C(=O)COc3ccc(Cl)cc3)CC2)nc2ccccc2c1=O (stereo unspecified)", 0),
    ("CCCCC/C=C\\C[C@@H](/C=C/C=C\\C/C=C\\CCCC(=O)O)OO", 0),
    ("C[C@@H](N)[C@@H](O)c1ccccc1", 1),
    ("Cc1ccc(N=CN(C)C=Nc2ccc(C)cc2C)c(C)c1", 2),
]

Now look at this one.
Request: Any idea which band O=NN(O)N1CCC[C@H]1C(=O)O is in?
Response: 0

---

System: Aerobactin synthetase IucA (Klebsiella pneumoniae)
Assay: IucA aerobactin synthetase inhibitors, biochemical, Tocris library, absorbance (AID 1345561);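 further: 100% = enzyme without compound and 0% = no enzyme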
Settings: purified IucA enzyme assay, absorbance (OD) read-out; stronger effect = lower value; concentration not given here
remaining activity overview
Kindly provide the numeric value in % only, without the unit symbol.

# molecule, remaining activity, %
records = [
    ("C=CCN1CC[C@]23c4c5ccc(O)c4O[C@H]2/C(=N/NC(=O)c2ccccc2)CC[C@@]3(O)[C@H]1C5", 115),
]

Request: State its remaining activity on Aerobactin synthetase IucA (Klebsiella pneumoniae): N#Cc1ccc(N2CCN(C(=O)COc3ccc4[nH]cc(CCN)c4c3)CC2)cc1
Response: 112

Request: Record C[C@H](N)Cc1cnc[nH]1 : what is its remaining activity with Aerobactin synthetase IucA (Klebsiella pneumoniae)?
Response: 92.3

Request: Notebook: pull reported remaining activity for Aerobactin synthetase IucA (Klebsiella pneumoniae), entry Oc1cc2c(cc1O)[C@H]1c3ccccc3CN[C@@H]1CC2
Response: 97.5

Request: Param readout= remaining activity; system= Aerobactin synthetase IucA (Klebsiella pneumoniae); entry= O=C(O)c1nn(Cc2ccc(Cl)cc2Cl)c2ccccc12 ; returns value.
Response: 90.4

Request: For the record CC(C)(C)NCC(O)COc1cccc2[nH]c(C#N)cc12 (stereo unspecified) , what value of remaining activity is listed for Aerobactin synthetase IucA (Klebsiella pneumoniae)?
Response: 115

---

Reported aggregation suppression score by item:
Assay: suppressors of polyglutamine aggregation in yeast, 75Q-TubH (AID 1616)
Details: S. cerevisiae 75Q-TubH polyglutamine aggregation suppression; stronger effect = higher value

Solved entries:
# compound, aggregation suppression score
data = [
    ("C[C@]12CCC3C(CC[C@@H]4C[C@H](O)CC[C@]34C)C1CCC2=O (stereo not given in full)", 0.472),
    ("CN=C1CN(O)C(c2ccccc2)=c2cc(Cl)ccc2=N1", 1.55),
    ("COc1cc([C@@H]2c3cc4c(cc3[C@H](O)[C@H]3COC(=O)[C@H]23)OCO4)cc(OC)c1OC", 0.784),
]

Request: Suppose we examine the compound CN1CC[C@]23c4c5ccc(O)c4O[C@H]2C(=O)CCC3[C@H]1C5 (stereo not given in full) ; what aggregation suppression score value has been reported?
Response: 1.27

Request: Could you share which aggregation suppression score value was measured for Clc1ccc(COC(Cn2ccnc2)c2ccc(Cl)cc2Cl)c(Cl)c1 (stereo not given) ?
Response: 0.00246

Request: Bench note: what aggregation suppression score did CCCCCc1cc(O)c2c(c1)OC(C)(C)C1CCC(C)=CC21 (stereo not given) show?
Response: 0.291

Request: What aggregation suppression score value was documented for this compound, N#C/C(=C\c1cccc(O)c1)C(=O)O ?
Response: 1.54

---

Test: sensitizers of A549 cells to miR-34 induction, primary screen, imaging, A549 dox-inducible miR-34, nuclei and caspase counts (AID 1347080)
Conditions: A549 miR-34 inducible, Hoechst nuclei count, 48 h; measured here: total cells with miR-34 induction; stronger effect = lower value
Catalogue of molecules with associated cell count
Lab note: record the figure alone, no unit after it.

Observe how each entry below is paired with its result.
# molecule, cell count
measured = [
    ("C(=C\\c1ccccc1)/CN1CCN(CCOC(c2ccccc2)c2ccccc2)CC1", 5420),
    ("CC(=O)O[C@@]12CO[C@@H]1CC(O)[C@@]1(C)C(=O)C(O)C3=C(C)C(O)C[C@@](O)(C(OC(=O)c4ccccc4)[C@H]21)C3(C)C (stereo not given in full)", 6370),
    ("CC[C@@H](C)C(=O)O[C@H]1[C@H](O)[C@H]2[C@@H](CN3C[C@@H](C)CC[C@H]3[C@@]2(C)O)C2C[C@]34O[C@@]5(O)[C@@H](OC(=O)[C@](C)(O)CC)CC[C@@]3(C)[C@@H]5[C@@H](OC(C)=O)[C@@H](OC(C)=O)[C@H]4[C@@]21O (stereo not given in full)", 9180),
    ("CCCCCCCC/C=C\\CCCCCCCC(=O)OC[C@@H](COP(O)(O)=S)OC", 6260),
]

Let us examine a further case.
Request: Item under review: CCS(=O)(=O)Nc1cccc(C(=C2CCCCC2)c2cnc[nH]2)c1 . Reported cell count?
Response: 8610

---

Test system: Aerobactin synthetase IucA (Klebsiella pneumoniae, hypervirulent)
Assay: IucA enzyme inhibition, biochemical, LOPAC library, absorbance readout (AID 1346212);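 further: 100% = no compound wells and 0% = no enzyme wells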
Details: IucA enzyme assay, absorbance (OD) readout; stronger effect = lower value; concentration not given here
remaining activity for assorted molecules
Reply with just the number (in %).

# molecule, display.unit, remaining activity
records = [
    ("CN1[C@@H]2CC[C@H]1CC(OC(=O)C(CO)c1ccccc1)C2 (stereo not given in full)", "%", 95),
    ("O=C(CCc1ccc(O)cc1)c1c(O)cc(O)cc1O", "%", 79.2),
]

Request: Notebook: pull reported remaining activity for Aerobactin synthetase IucA (Klebsiella pneumoniae, hypervirulent), entry CCCn1c(=O)[nH]c(=O)c2[nH]cnc21
Response: 103

Request: Look up remaining activity with Aerobactin synthetase IucA (Klebsiella pneumoniae, hypervirulent) for this molecule: C=C(C)[C@H]1CN[C@H](C(=O)O)[C@H]1CC(=O)O
Response: 119

Request: Value wanted: remaining activity (Aerobactin synthetase IucA (Klebsiella pneumoniae, hypervirulent)) of entry CC(C)OC(=O)C(C)(C)Oc1ccc(C(=O)c2ccc(Cl)cc2)cc1
Response: 108

Request: Under Aerobactin synthetase IucA (Klebsiella pneumoniae, hypervirulent): remaining activity value of CNCCNS(=O)(=O)c1cccc2cnccc12 ?
Response: 102

---

Experiment: UWB1.289 ovarian carcinoma cell growth inhibition, synergistic combos for chromothripsis tumors, BGB or cisplatin combos (AID 1671456);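 further: cells exposed to compound for four days; 0% = vehicle DMSO and 100% = killing by high DMSO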
Details: UWB1.289 ovarian carcinoma cells, measured here: inhibition with BGB combination, at 0.05 µM, stronger effect = higher value
Classification field: true = inhibition at or over -30%; false = inhibition under -30%.

Record excerpt, results attached:
# compound, group.label
records = [
    ("O=C1CCC[C@@H]2[C@H]3CCCN4CCC[C@@H](CN12)[C@@H]34", "true"),
    ("Cn1c(COP(=O)(NCCBr)NCCBr)cnc1[N+](=O)[O-]", "true"),
    ("O=P(O)(NCCCl)NCCCl", "true"),
    ("O=C(O)CCCc1ccc(N(CCCl)CCCl)cc1", "true"),
    ("NC(Cc1ccc(N(CCCl)CCCl)cc1)C(=O)O (stereo unspecified)", "false"),
]

Query compound follows.
Request: Determine whether this compound has inhibition no lower than -30%: CC1(C)C(C(=O)Nc2ccc(S(=O)(=O)c3ccc(NC(=O)C4C(C)(C)C4(C)C)cc3)cc2)C1(C)C
Response: false

---

Assay: viability rescue of complex I mutant cybrids, primary screen, cell-based, galactose medium, ATP luminescence (AID 1645843);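 further: positive z means more ATP and so rescue of galactose-driven cybrid death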
Settings: complex I mutant cybrid cells, 72 h, stronger effect = higher value
Everything with z-score lower than -0.3 is Criterion not met; everything else, including exactly -0.3, is Criterion met.

Check out these entries, answers already filled in.
# compound, group.label
data = [
    ("COc1ccc2[nH]c3c(c2c1)CCNC3", "Criterion met"),
    ("C=CCN1C[C@H](C)N([C@H](c2ccc(C(=O)N(CC)CC)cc2)c2cccc(O)c2)C[C@H]1C", "Criterion met"),
    ("O=C1NC(=O)c2c1c1c3ccccc3n3c1c1c2c2ccccc2n1C1CCC3O1", "Criterion not met"),
    ("CCCN1CCc2cc(O)cc3c2[C@H]1Cc1ccc(O)c(O)c1-3", "Criterion not met"),
    ("CN1C2CCC1CC(OC(c1ccc(F)cc1)c1ccc(F)cc1)C2 (stereo unspecified)", "Criterion not met"),
]

Request: API: above_or_equal(metric=z-score, cutoff=-0.3) for item C[C@]12CCC3C4CCC(=O)C=C4CCC3C1CCC2O (stereo partly specified)
Response: Criterion not met
